Assay: MTT cytotoxicity assay, MRC-5 (normal cells)
Format: cell-based
Conditions: MRC-5 cells (normal embryonic lung fibroblasts), normal human embryonic lung fibroblast, 24 h exposure, n = 8
Property: IC50 at 24 h

Would you please look over these solved cases?
COC(=O)C1OC(OC2CCC3(C)C(CCC4(C)C3CC=C3C5CC(C)(C)CCC5(CO)C(O)C(O)C34C)C2(C)C)C(OC2OC(CO)C(O)C(O)C2O)C(OC2OC(CO)C(O)C(O)C2OC2OC(C)C(O)C(O)C2O)C1O (stereo not shown)	> 30 µM
CC(=O)OC1C(C)OC(OC2C(OC3C(OC4C(=O)c5c(O)cc(O)cc5OC4c4ccc(O)cc4)OC(C)C(O)C3O)OC(CO)C(O)C2O)C(O)C1O (stereo not shown)	> 30 µM
CC1OC(OC2C(OC3C(O)C(C(=O)O)OC(OC4CCC5(C)C(CCC6(C)C5CC=C5C7CC(C)(C)CCC7(CO)C(=O)C(O)C56C)C4(C)C)C3OC3OC(CO)C(O)C(O)C3O)OC(CO)C(O)C2O)C(O)C(O)C1O (stereo not shown)	> 30 µM
C[C@@H]1O[C@@H](OC[C@H]2O[C@@H](Oc3c(-c4ccc(O)c(O)c4)oc4cc(O)cc(O)c4c3=O)[C@H](OC(=O)/C=C/c3ccc(O)cc3)[C@@H](O[C@@H]3OC[C@H](O)[C@H](O)[C@H]3O)[C@@H]2O)[C@H](O)[C@H](O[C@@H]2OC[C@@H](O)[C@H](O)[C@H]2O)[C@H]1O	> 30 µM
CC1OC(OC2C(OC3C(O)C(C(=O)O)OC(OC4CCC5(C)C(CCC6(C)C5CC=C5C7CC(C)(C)CCC7(CO)C(O)C(O)C56C)C4(C)C)C3OC3OC(CO)C(O)C(O)C3O)OC(CO)C(O)C2O)C(O)C(O)C1O (stereo not shown)	> 30 µM

Summary for this compound, CC(=O)OC1C(O)C(C)OC(OC2C(OC3C(OC4C(=O)c5c(O)cc(O)cc5OC4c4ccc(O)cc4)OC(C)C(O)C3O)OC(CO)C(O)C2O)C1O (stereo not shown) : IC50 at 24 h is > 30 µM

Summary for this compound, CC1OC(OC2C(OC3C(OC4C(=O)c5c(O)cc(O)cc5OC4c4ccc(O)cc4)OC(C)C(O)C3O)OC(CO)C(O)C2O)C(O)C(O)C1O (stereo not shown) : IC50 at 24 h is > 30 µM

###

Reported IC50 values for the following compounds.
System: Hep G2
Test: MTT cytotoxicity assay, Hep G2
Format: cell-based
Conditions: Homo sapiens, HepG2, 24 h exposure, ± SD, n = 8
Source text: The human cervical cancer cell line Hela, the human lung adenocarcinoma cell line A549, the human breast cancer cell lines MCF-7 and MDA-MB-231, the human hepatoma cell lines BEL-7402 and Hep G2, the human embryonic lung fibroblast cell line MRC-5, and the human nasal epithelial cell line HNEpC were all sourced from the China Center for Type Culture Collection (CCTCC, Wuhan University, Hubei, China). […]

Example cases with answers are listed next.
CC1OC(OC2C(OC3C(OC4C(=O)c5c(O)cc(O)cc5OC4c4ccc(O)cc4)OC(C)C(O)C3O)OC(CO)C(O)C2O)C(O)C(O)C1O (stereo not drawn) [Compound 4]	> 30 µM
CC(=O)OC1C(C)OC(OC2C(OC3C(OC4C(=O)c5c(O)cc(O)cc5OC4c4ccc(O)cc4)OC(C)C(O)C3O)OC(CO)C(O)C2O)C(O)C1O (stereo not drawn) [Compound 6]	> 30 µM

Record C[C@@H]1O[C@@H](OC[C@H]2O[C@@H](Oc3c(-c4ccc(O)c(O)c4)oc4cc(O)cc(O)c4c3=O)[C@H](OC(=O)/C=C/c3ccc(O)cc3)[C@@H](O[C@@H]3OC[C@H](O)[C@H](O)[C@H]3O)[C@@H]2O)[C@H](O)[C@H](O[C@@H]2OC[C@@H](O)[C@H](O)[C@H]2O)[C@H]1O [Compound 7] . Reported IC50: > 30 µM
